assay: A CellTox Green Cytotoxicity Assay to monitor cytotoxicity in HepG2 cells - 8 hour (AID 1224890); conditions: CellTox Green fluorescence; series mostly up to 76.8 µM; note: nearly all actives have a fitted effect of over 45% in size
Results filed as inconclusive are left out. Activity calls are given as the source filed them. Calls come from the whole dose curve; as a rule, active = well fitted activation curve with a large enough effect in the repeat runs; inconclusive = weak or mixed curves; inactive = flat fitted curve, though single readings scatter.
Can you answer with just one of these options? 1 (active), -1 (inactive)

Q: Query: recorded result category for CCCCCOC(=O)CCCC in this test
Ans: -1

Q: Query: recorded result category for Cc1c(C)c2c(c(C)c1OC(=O)CCC(=O)O)CC[C@@](C)(CCC[C@H](C)CCC[C@H](C)CCCC(C)C)O2 in this test
Ans: -1

Q: Query: recorded result category for C=CC(=O)OCCn1c(=O)n(CCOC(=O)C=C)c(=O)n(CCOC(=O)C=C)c1=O in this test
Ans: -1

Q: Query: recorded result category for CC(=O)N1CCN(c2ccc(OC[C@H]3CO[C@](Cn4ccnc4)(c4ccc(Cl)cc4Cl)O3)cc2)CC1 in this test
Ans: -1

Q: Query: recorded result category for CCCCN(CCCC)C(=O)N(CCCC)CCCC in this test
Ans: -1

Q: Query: recorded result category for CCCCCCCCCCCCCCCC[N+](C)(C)CCN(Cc1ccc(OC)cc1)c1ncccn1 in this test
Ans: 1

Q: Query: recorded result category for O=C(Nc1cccc(C(F)(F)F)c1)c1cc(Br)cc(Br)c1O in this test
Ans: -1

Q: Query: recorded result category for Nc1ccc2cc(S(=O)(=O)O)cc(O)c2c1N=Nc1ccccc1C(F)(F)F in this test
Ans: -1

Q: Query: recorded result category for CCCCN1CCCC[C@H]1C(=O)Nc1c(C)cccc1C in this test
Ans: -1

Q: Query: recorded result category for O=C1CCCc2c1cc1ccc3cccc4ccc2c1c34 in this test
Ans: -1

###

assay: qHTS assay to identify small molecule antagonists of the androgen receptor (AR) signaling pathway - cell viability counter screen (AID 743033; note: nearly all actives have a fitted effect of over 45% in size; note: potency is the fitted concentration of half-maximal effect); details: AR-bla HEK293 viability, CellTiter-Glo luminescence, 16 h; series mostly up to 58.5 µM
Inconclusive results are not listed. Active and inactive are the calls of the source. The call rests on the fitted dose curve; in most records, active means well fitted cell-killing curve with a large enough effect in the repeat runs; inconclusive means weak or mixed curves; inactive means no such curve, though single readings can be large or run the other way.
READOUT LABEL: Potency

Example cases with answers are listed next.
O=CC=C(c1ccccc1)c1ccccc1	22.1 µM (active)
CCCCCCCCn1sc(Cl)c(Cl)c1=O	6.16 µM (active)
CS(=O)(=O)CCNCc1ccc(-c2ccc3ncnc(Nc4ccc(OCc5cccc(F)c5)c(Cl)c4)c3c2)o1	inactive
CN1CCN(CCC(=O)N2c3ccccc3Sc3ccc(C(F)(F)F)cc32)CC1	inactive
CCCCCCCCNC(C)C(O)c1ccc(SC(C)C)cc1 (stereo unspecified)	21.3 µM (active)

# context switch: different compound, same Potency
# Potency of CCN(CC)CCNC(=O)c1c(C)[nH]c(/C=C2\C(=O)Nc3ccc(F)cc32)c1C = inactive

###

target: Progesterone receptor (Homo sapiens); assay: qHTS assay to identify small molecule agonists of the progesterone receptor (PR) signaling pathway (AID 1346784); conditions: PR-UAS-bla HEK293T, beta-lactamase FRET ratio, 16 h; series mostly up to 92.4 µM; note: % is set by controls: 0 for no effect and ±100 for the full control effect; nearly all actives have a fitted effect of over 30% in size
Inconclusive results are not listed. Calls of active or inactive are those of the source. The call rests on the fitted dose curve.
READOUT LABEL: outcome

Cc1ccc2oc(CN(Cc3ccccc3)C(=O)Nc3c(F)cc(F)cc3F)c(-c3ccc(Cl)cc3)c2c1	inactive
CCc1oc2ccccc2c1C(=O)c1cc(Br)c(O)c(Br)c1	inactive
COc1cc(/C=C/C(=O)O[C@H]2CC[C@]34C[C@]35CC[C@]3(C)[C@@H]([C@H](C)CCC=C(C)C)CC[C@@]3(C)[C@@H]5CC[C@H]4C2(C)C)ccc1O	inactive

###

assay: qHTS assay for small molecule agonists of the p53 signaling pathway - cell viability (AID 651633); conditions: p53RE-bla HCT-116 viability, ATP luminescence, 16 h; series mostly up to 83.3 µM; note: nearly all actives have a fitted effect of over 30% in size
Records with an inconclusive call do not appear. Activity calls are given as the source filed them. The call rests on the fitted dose curve.
Can you answer with just one of these options? class 1 = active, class 0 = inactive

Q: Query: recorded result category for CCC1OCC(COc2ccc(Oc3ccccc3)cc2)O1 (stereo not drawn) in this test
Ans: class 0

Q: Query: recorded result category for CCCCCCOC(=O)c1ccc(O)cc1 in this test
Ans: class 0

Q: Query: recorded result category for Oc1cccc2cc3cccc(O)c3c(O)c12 in this test
Ans: class 0

Q: Query: recorded result category for Cc1[nH]cnc1C[C@H]1CCc2c(C)c3ccccc3n2C1=O in this test
Ans: class 0

Q: Query: recorded result category for CCCCCCCCn1sc(Cl)c(Cl)c1=O in this test
Ans: class 1

Q: Query: recorded result category for CN1CCC(Nc2ncc3ncnc(Nc4ccc(F)c(Cl)c4)c3n2)CC1 in this test
Ans: class 0

Q: Query: recorded result category for O=C(OCC1CO1)C1CCCCC1C(=O)OCC1CO1 (stereo not drawn) in this test
Ans: class 0

Q: Query: recorded result category for C=C(C)C(=O)OCC[N+](C)(C)C in this test
Ans: class 0

###

biological target: Estrogen receptor (Homo sapiens); test: qHTS assay to identify small molecule antagonists of the estrogen receptor alpha (ER-alpha) signaling pathway (AID 743069); settings: HEK293 ER-alpha-UAS-bla, beta-lactamase ratio, antagonist mode; series mostly up to 69.4 µM
The source made the active and inactive calls. Calls come from the whole dose curve; as a rule, active = well fitted curve in the direction sought with a large enough effect in the signal ratio in the repeat runs (not every such curve was filed as active); inconclusive = weak or mixed curves, or effect the other way; inactive = no such curve, though single readings can be large or run the other way; the % refers to the signal ratio.
Can you answer with just one of these options? active, inactive

Q: Query: recorded result category for O=c1[nH]sc2ccccc12 in this test
Ans: inactive

Q: Query: recorded result category for CCCCCCCCCCCCCCCC(=O)OC[C@H](O)[C@H]1OC(=O)C(O)=C1O in this test
Ans: inactive

Q: Query: recorded result category for CC(=O)N1CCN(c2ccc(OC[C@H]3CO[C@](Cn4ccnc4)(c4ccc(Cl)cc4Cl)O3)cc2)CC1 in this test
Ans: inactive

Q: Query: recorded result category for O=S1(=O)CC(Cl)(Cl)C(Cl)(Cl)C1 in this test
Ans: active

Q: Query: recorded result category for CC(C)C(C)(C)C(C)(C)C(C)(C)S in this test
Ans: inactive

Q: Query: recorded result category for Cc1ccc2oc(CN(Cc3ccccc3)C(=O)Nc3c(F)cc(F)cc3F)c(-c3ccc(Cl)cc3)c2c1 in this test
Ans: inactive

###

experiment: qHTS assay to identify small molecule agonists of H2AX - cell viability counter screen (AID 1224847); conditions: CHO-K1 viability, CellTiter-Glo luminescence, 3 h; series mostly up to 70.9 µM; note: nearly all actives have a fitted effect of over 30% in size
Inconclusive results are not listed. Activity calls are given as the source filed them. Calls come from the whole dose curve.
Can you answer with just one of these options? yes (active), no (inactive)

Q: Query: recorded result category for CCCCCCCCCCCCCCCC[N+](C)(C)CCN(Cc1ccc(OC)cc1)c1ncccn1 in this test
Ans: yes

Q: Query: recorded result category for CC(=O)S[C@@H]1CC2=CC(=O)CC[C@]2(C)[C@H]2CC[C@@]3(C)[C@@H](CC[C@@]34CCC(=O)O4)[C@H]12 in this test
Ans: no

Q: Query: recorded result category for O=C(c1ccc(F)cc1)C1CCN(CCn2c(=O)[nH]c3ccccc3c2=O)CC1 in this test
Ans: no

###

assay: A CellTox Green Cytotoxicity Assay to monitor cytotoxicity in HepG2 cells - 24 hour (AID 1224878); details: CellTox Green fluorescence; series mostly up to 76.8 µM; note: nearly all actives have a fitted effect of over 45% in size; note: potency is the fitted concentration of half-maximal effect; for Cytotoxicity: % is set by controls: 0 for no effect and ±100 for the full control effect
Results filed as inconclusive are left out. Active and inactive are the calls of the source. Calls come from the whole dose curve; as a rule, active = well fitted activation curve with a large enough effect in the repeat runs; inconclusive = weak or mixed curves; inactive = flat fitted curve, though single readings scatter.
READOUT LABEL: Potency

Example cases with answers are listed next.
N=C1C=CC(=C(c2ccc(N)cc2)c2ccc(N)cc2)C=C1	inactive
O=[N+]([O-])c1cc([N+](=O)[O-])c2ccc(S(=O)(=O)O)cc2c1O	inactive
CCCCN1CCCC[C@H]1C(=O)Nc1c(C)cccc1C	inactive
O=c1[nH]cnc2nc[nH]c12	inactive
CC(C)(C)C(=O)OCOC(=O)[C@@H]1N2C(=O)[C@@H](NC(=O)[C@H](N)c3ccccc3)[C@H]2SC1(C)C	inactive

# Potency of CC1=C(/C=C/C(C)=C/C=C/C(C)=C/C=O)C(C)(C)CCC1 = 54.6 µM (active)

# Potency of CC(=O)SC[C@@H](Cc1ccccc1)C(=O)NCC(=O)OCc1ccccc1 = inactive

# Potency of c1cc(C(c2ccc(OCC3CO3)cc2)c2ccc(OCC3CO3)cc2)ccc1OCC1CO1 (stereo not given) = inactive

# Potency of Oc1ccc2cc(SSc3ccc4cc(O)ccc4c3)ccc2c1 = inactive

# Potency of CN(C)c1ccc(C2(c3ccc(N(C)C)cc3)OC(=O)c3cc(N(C)C)ccc32)cc1 = inactive

###

test: qHTS assay to identify small molecule agonists of the AP-1 signaling pathway - cell viability counter screen (AID 1159525); conditions: ME-180 (cervical carcinoma) AP-1-bla cells viability, ATP luminescence, 5 h; series mostly up to 76.8 µM; note: nearly all actives have a fitted effect of over 55% in size
Results filed as inconclusive are left out. Calls of active or inactive are those of the source. The call rests on the fitted dose curve.
Can you answer with just one of these options? T = active, F = inactive

Q: Query: recorded result category for CC(C)=CCOc1ccc(/C=C/C(=O)c2ccc(OCC=C(C)C)cc2OCC(=O)O)cc1 in this test
Ans: F

Q: Query: recorded result category for N#CSc1ccc(N)c([N+](=O)[O-])c1 in this test
Ans: F

Q: Query: recorded result category for Cc1oc(-c2ccccc2)nc1CCC(=O)c1ccc(CC2SC(=O)NC2=O)cc1 (centres undefined) in this test
Ans: F

Q: Query: recorded result category for CCCN(CCC)c1c([N+](=O)[O-])cc(C(F)(F)F)c(N)c1[N+](=O)[O-] in this test
Ans: T

Q: Query: recorded result category for CCCCCCCCCCCCCC[P+](CCCC)(CCCC)CCCC (tested in a mixture with another compound) in this test
Ans: T

Q: Query: recorded result category for CC(=O)S[C@@H]1CC2=CC(=O)CC[C@]2(C)[C@H]2CC[C@@]3(C)[C@@H](CC[C@@]34CCC(=O)O4)[C@H]12 in this test
Ans: F

Q: Query: recorded result category for CCCC/C=C/CCCCO in this test
Ans: F

Q: Query: recorded result category for Cc1nc(-c2ccc3c(c2)CCN(CCC2CCC(NC(=O)/C=C/c4ccc(F)cc4)CC2)CC3)no1 (centres undefined) in this test
Ans: F

Q: Query: recorded result category for Cc1cccc(CN2CCN(C(c3ccccc3)c3ccc(Cl)cc3)CC2)c1 (centres undefined) in this test
Ans: F

Q: Query: recorded result category for CO[Si](CCCNc1ccccc1)(OC)OC in this test
Ans: F

Q: Query: recorded result category for O=C(Nc1cccc(Cl)c1)OCC#CCCl in this test
Ans: F

Q: Query: recorded result category for CN(C)[C@@H]1C(=O)C(C(N)=O)=C(O)[C@@]2(O)C(=O)C3=C(O)c4c(O)ccc(Cl)c4[C@@H](O)[C@H]3C[C@@H]12 in this test
Ans: F

Q: Query: recorded result category for c1cc(C(c2ccc(OCC3CO3)cc2)c2ccc(OCC3CO3)cc2)ccc1OCC1CO1 (centres undefined) in this test
Ans: F

Q: Query: recorded result category for O=C(NO)C1(NS(=O)(=O)c2ccc(Oc3ccc(F)cc3)cc2)CCOCC1 in this test
Ans: F

Q: Query: recorded result category for OCCCCCCCCCCCCBr in this test
Ans: F

Q: Query: recorded result category for CCCC1O[C@@H]2C[C@H]3[C@@H]4CCC5=CC(=O)C=C[C@]5(C)[C@H]4[C@@H](O)C[C@]3(C)[C@]2(C(=O)CO)O1 (some centres undefined) in this test
Ans: F

Q: Query: recorded result category for CCCC(c1cc(C(C)(C)C)c(O)cc1C)c1cc(C(C)(C)C)c(O)cc1C in this test
Ans: T

Q: Query: recorded result category for CCCCCCC[N+](CC)(CC)CCCCc1ccc(Cl)cc1 in this test
Ans: F

Q: Query: recorded result category for Nc1cc(C(F)(F)F)ccc1S in this test
Ans: F
